# Assay procedure: Prodrug in vivo pharmacokinetics in monkeys (plasma, LC-MS-MS)
# Parameters: species or system Monkey (Cynomolgus)
# Test settings: Cynomolgus, cynomolgus monkey, plasma, po, 10 mg/kg, Example 4 in monkey plasma after oral Example 4 (10 mg/kg active); Mean
Property name: Tmax (min)
Return type: number; implicit unit min.

-- ask Let me know recorded Tmax for N[C@H]1Cc2ccccc2N(O)C1=O , thanks.
-- reply 41.4

###

# Assay procedure: Prodrug in vivo pharmacokinetics in dogs (plasma, LC-MS-MS)
# Design: species or system Dog (Beagle)
# Test settings: Beagle, dog, plasma, po, 1 mg/kg, Example 72 in dog plasma after oral Example 72 (1 mg/kg active); Dog 2
Property name: Tmax (h)
Write down the numeric answer in h and omit the unit.

-- ask Please give the documented Tmax of CN(C)C(=O)ON1C(=O)[C@@H](N)Cc2cc(Oc3ccccc3)ccc21
-- reply 1

###

# Assay procedure: Prodrug in vivo pharmacokinetics in monkeys (plasma, LC-MS-MS)
# Design: species or system Monkey (Cynomolgus)
# Test settings: Cynomolgus, cynomolgus monkey, plasma, po, 10 mg/kg, Example 4 in monkey plasma after oral Example 4 (10 mg/kg active); Monkey 4
Property name: half-life (min)
Reply with just the number (in min).

-- ask Give a short answer stating reported half-life for N[C@H]1Cc2ccccc2N(O)C1=O [Example 4] .
-- reply 37.8

###

# Assay procedure: Prodrug in vivo pharmacokinetics in monkeys (plasma, LC-MS-MS)
# Set-up: species or system Monkey (Cynomolgus)
# Test settings: Cynomolgus, cynomolgus monkey, plasma, po, 10 mg/kg, Example 4 in monkey plasma after oral Example 4 (10 mg/kg active); Monkey 2; read-out: AUC
# Protocol: Test substances (Examples 4 and 71-73) were administered by oral gavage to groups of two monkeys. Blood samples were taken at various times after administration and submitted to analysis for the parent drug (Example 4 and Example 71) and pro-drug (Examples 72 and 73) using an LC-MS-MS assay. […] Pharmacokinetic parameters derived from the plasma analytical data were determined using Watson LIMS 7.2.003 (Thermo Fisher Scientific, Waltham, Mass.). […]
Property name: AUC (ng·h/mL)
The reply should be a number in ng·h/mL, with the unit left off.

-- ask Please indicate AUC recorded for N[C@H]1Cc2ccccc2N(O)C1=O [Example 4]
-- reply 239

###

Here, each record is paired with measured log10(IC50) data.
# Measured target: human KAT II (hKAT II) enzyme (Homo sapiens)
# Sequence (Q8N5Z0 30-425): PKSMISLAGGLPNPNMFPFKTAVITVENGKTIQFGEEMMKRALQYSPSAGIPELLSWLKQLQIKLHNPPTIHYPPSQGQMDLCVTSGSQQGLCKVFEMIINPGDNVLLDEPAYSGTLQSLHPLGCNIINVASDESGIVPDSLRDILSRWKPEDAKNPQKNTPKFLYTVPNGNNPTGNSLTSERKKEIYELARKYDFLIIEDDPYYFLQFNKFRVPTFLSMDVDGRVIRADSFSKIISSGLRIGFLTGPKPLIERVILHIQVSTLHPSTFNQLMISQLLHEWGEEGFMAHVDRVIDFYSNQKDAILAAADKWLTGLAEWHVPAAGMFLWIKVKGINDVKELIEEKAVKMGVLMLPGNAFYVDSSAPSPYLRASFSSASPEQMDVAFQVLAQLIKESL
# Assay procedure: KAT II Inhibition Spectra Assay
# Format: biochemical
# Test settings: Table 5; hKAT II, decrease in OD370, 37° C., 15-20 h; read-out: KATII IC50
Where a name gives a salt, the structure may show the parent alone.
Quick note: numbers are log10 of IC50, with µM as the unit.

Below, each entry is followed by its recorded log10(IC50) result.
> print(dat)
                                   compound                           measured.target  property.name  measured.result
1  N#Cc1ccccc1-c1ccc2c(c1)N(O)C(=O)C(N)C2 (stereo not shown) [Example 62, trifluoroacetate salt]  human KAT II (hKAT II) enzyme (Homo sapiens)    log10(IC50)            -0.87
2  Cc1ccc2c(c1)N(O)C(=O)C(N)C2 (stereo not shown)  human KAT II (hKAT II) enzyme (Homo sapiens)    log10(IC50)            -1.02
3  NC1Cc2ccc(-c3cc(Cl)ccc3Cl)cc2N(O)C1=O (stereo not shown) [Example 43, trifluoroacetate salt]  human KAT II (hKAT II) enzyme (Homo sapiens)    log10(IC50)            -0.88
4           N[C@H]1Cc2cc(Cl)cc(F)c2N(O)C1=O  human KAT II (hKAT II) enzyme (Homo sapiens)    log10(IC50)            -1.30
5  NC1Cc2ccc(-c3cc(F)ccc3F)cc2N(O)C1=O (stereo not shown) [Example 50, trifluoroacetate salt]  human KAT II (hKAT II) enzyme (Homo sapiens)    log10(IC50)            -0.99
6  NC1Cc2ccc(-c3ccccc3OC(F)(F)F)cc2N(O)C1=O (stereo not shown) [Example 41, trifluoroacetate salt]  human KAT II (hKAT II) enzyme (Homo sapiens)    log10(IC50)            -0.59

Alright, here's another compound for you.
-- ask Supply log10(IC50) measured with human KAT II (hKAT II) enzyme (Homo sapiens) for NC1Cc2c(ccc3ccccc23)N(O)C1=O (stereo not shown) .
-- reply -0.92
